System: Musca domestica (houseflies - adults)
Experiment: Contact test on houseflies - adults (MD), Cotton wool/sugar, mortality
Format: in vivo
Conditions: 72 h, 500 ppm, contact, 3 days, read-out: MD grading of mortality
reported-metric: mortality at 500 ppm

Examples with their reported mortality at 500 ppm follow.
compound	mortality at 500 ppm
CC(C)OC(=O)c1c(F)c(F)c(COC(=O)C(c2cnc(C(C)(C)C)nc2)C(C)(C)C)c(F)c1F (racemic)	< 50%
CC(C)SCc1c(F)c(F)c(COC(=O)C(c2cnc(C(C)(C)C)nc2)C(C)(C)C)c(F)c1F (racemic)	< 50%

Summary for this compound, COCc1c(F)c(F)c(COC(=O)C(c2cnc(C(C)C)nc2)C(C)(C)C)c(OC)c1F (racemic) : mortality at 500 ppm is 50 to 79%

Just so you know, measured mortality at 500 ppm for COCc1c(F)c(F)c(COC(=O)C(c2cnc(C(C)(C)C)nc2)C(F)(F)F)c(F)c1F (racemic) came out at < 50%

----------
Test system: Musca domestica (houseflies - adults)
Assay: Contact test on houseflies - adults (MD), Cotton wool/sugar, mortality
Type: in vivo
Settings: 72 h, 500 ppm, contact, 3 days, read-out: MD grading of mortality
Property: mortality at 500 ppm; scope: individual molecules

Here are 6 molecules together with their reported answers.
molecule	system-under-test	mortality at 500 ppm
CC(C)(C)c1ncc(C(C(=O)OCc2ccc(F)c(Cc3ccccc3)c2)C(C)(C)C)cn1 (racemic)	Musca domestica (houseflies - adults)	< 50%
CC(=O)OCc1c(F)c(F)c(COC(=O)C(c2cnc(C(C)(C)C)nc2)C(C)(C)C)c(F)c1F (racemic)	Musca domestica (houseflies - adults)	< 50%
CC(C)(C)c1ncc(C(C(=O)OC(C#N)c2cccc(Oc3ccccc3)c2)C(C)(C)C)cn1 (racemic)	Musca domestica (houseflies - adults)	80 to 100%
CC(C)(C)c1ncc(C(C(=O)OCc2c(F)c(F)c(CO)c(F)c2F)C(C)(C)C)cn1 (racemic)	Musca domestica (houseflies - adults)	< 50%
COCc1c(F)c(F)c(COC(=O)C(c2cnc(N(C)C)nc2)C(C)(C)C)c(F)c1F (racemic)	Musca domestica (houseflies - adults)	80 to 100%
CSc1c(F)c(F)c(COC(=O)C(c2cnc(C(C)(C)C)nc2)C(C)(C)C)c(F)c1F (racemic)	Musca domestica (houseflies - adults)	80 to 100%

For this molecule ( C=CCc1c(F)c(F)c(COC(=O)C(c2cnc(C(C)(C)C)nc2)C(C)(C)C)c(F)c1F (racemic) ), measured mortality at 500 ppm is < 50%

The molecule listed as CC(C)(C)c1ncc(C(C(=O)SCc2c(F)c(F)c(CO)c(F)c2F)C(C)(C)C)cn1 (racemic) shows mortality at 500 ppm equal to < 50%

Per the records, this molecule ( CCOc1c(F)c(COC)c(F)c(F)c1COC(=O)C(c1cnc(C(C)(C)C)nc1)C(C)(C)C (racemic) ) has mortality at 500 ppm equal to 50 to 79%

Summary for this molecule, CC(C)c1ncc([C@H](C(=O)O[C@H](C)c2cccc(Oc3ccccc3)n2)C(C)(C)C)cn1 (racemic) : mortality at 500 ppm is 50 to 79%

Field mortality at 500 ppm (entry COc1c(F)c(COC(C)C)c(F)c(F)c1COC(=O)C(c1cnc(C(C)(C)C)nc1)C(C)(C)C (racemic) ) reads < 50%

The value of mortality at 500 ppm measured for the molecule CC(C)(C)c1ncc([C@H](C(=O)O[C@H](c2cccc(Oc3ccccc3)n2)C(F)(F)F)C(C)(C)C)cn1 (racemic) turned out to be 80 to 100%

The measured mortality at 500 ppm associated with CC(C)(C)SCc1c(F)c(F)c(COC(=O)C(c2cnc(C(C)(C)C)nc2)C(C)(C)C)c(F)c1F (racemic) reads < 50%

Lookup result for CCN(CC)Cc1c(F)c(F)c(COC(=O)C(c2cnc(C(C)(C)C)nc2)C(C)(C)C)c(F)c1F (racemic) ; measured mortality at 500 ppm: 80 to 100%
